# method: phase I pharmacokinetics in blood (dried blood spot, LC-MS/MS, noncompartmental analysis)
# Assay type: in vivo, human
# testConditions: human, whole blood (dried blood spot), intravenous, 340 mg/m2, 340 mg/m^2, cycle 1 Day 22, N = 3, mean ± SD, blood
# Description: Blood samples for pharmacokinetic analysis were acquired using dried blood-spot technology on days 1 and 22 of cycle 1 at several time points before, during, and after infusion (up to 168 hours after administration). Drug concentrations were determined by a validated method of liquid chromatography and tandem mass spectrometry (limit of quantification 2 ng/mL). […]
assayReadout: Cmax (ng/mL)
Your answer should be a plain number; it is taken to be in ng/mL.

Prompt line: Quick check: Cmax of `O=C(NCCN1CCOCC1)Nc1nc2ccc(Sc3nnc4ccc(-c5ccc(F)cc5)nn34)cc2s1` ?
Response line: 4700
